test system: PfAP2-EXP AP2 domain (GST-tagged); experiment: gcPBM binding intensity (ln(normalized median fluorescence intensity)); higher = stronger DNA binding
In all, about 25,000 sequences were measured (“ln(normalized median fluorescence intensity)”: median about 8.6, highest 2% from about 10 on). The full list was thinned out, with the highest values kept by preference.
Listing of entries alongside the reported gcPBM binding intensity (ln).

- residue.string: "ATCAAAGATAAATTTACACACATATAAATATAAATA [CACACA_site7409]"
  system: "PfAP2-EXP AP2 domain (GST-tagged)"
  gcPBM binding intensity (ln): 8.44
- residue.string: "ATATATATATATATATGTACTGAATAAAGAACAAAA [XGTACX_site5400]"
  system: "PfAP2-EXP AP2 domain (GST-tagged)"
  gcPBM binding intensity (ln): 10.1
- residue.string: "TATTTTACTTTAAAAATGGAAAAAAAAAAGAATATT [CACACA_negctrl_site1360]"
  system: "PfAP2-EXP AP2 domain (GST-tagged)"
  gcPBM binding intensity (ln): 8.38
- residue.string: "TTAGCAACTATTACTACACACATTTGTATTTAATTT [CACACA_site4961]"
  system: "PfAP2-EXP AP2 domain (GST-tagged)"
  gcPBM binding intensity (ln): 8.49
- residue.string: "AAAAAATGGATGATCACACACTTCATAAAAATTGCA [CACACA_site5256]"
  system: "PfAP2-EXP AP2 domain (GST-tagged)"
  gcPBM binding intensity (ln): 8.46
- residue.string: "ATTTTTTTGTTAATTTGTACATAAAATTTTATTTTA [XGTACX_site7007]"
  system: "PfAP2-EXP AP2 domain (GST-tagged)"
  gcPBM binding intensity (ln): 8.72
- residue.string: "TAAATAATATCTATCACACACGCATATATACATATA [CACACA_site2622]"
  system: "PfAP2-EXP AP2 domain (GST-tagged)"
  gcPBM binding intensity (ln): 8.32
- residue.string: "ATAATATCATAATATTGTACATATTTTATTTTAAAT [XGTACX_site1115]"
  system: "PfAP2-EXP AP2 domain (GST-tagged)"
  gcPBM binding intensity (ln): 8.36
- residue.string: "AAAACATCAAAAATGTGTACATATATATATATATAT [XGTACX_site8884]"
  system: "PfAP2-EXP AP2 domain (GST-tagged)"
  gcPBM binding intensity (ln): 10.3
- residue.string: "TATTATATGTATTGCACACCTTCAACAACTACTTCT [CACACA_site655]"
  system: "PfAP2-EXP AP2 domain (GST-tagged)"
  gcPBM binding intensity (ln): 9.03
- residue.string: "AACATATTTATGATGTGTACCTACATAATAGAATTT [XGTACX_site141]"
  system: "PfAP2-EXP AP2 domain (GST-tagged)"
  gcPBM binding intensity (ln): 8.38
- residue.string: "ATCAAAAGAAAACACACACACATACATATATATATA [CACACA_site3795]"
  system: "PfAP2-EXP AP2 domain (GST-tagged)"
  gcPBM binding intensity (ln): 9.81
- residue.string: "TATATATTTTTTTCAAGTACACATTACAGTTACATA [XGTACX_site2713]"
  system: "PfAP2-EXP AP2 domain (GST-tagged)"
  gcPBM binding intensity (ln): 8.62
- residue.string: "ATTTAGTATTCGAAACGTACACATATATATATATAT [XGTACX_site3910]"
  system: "PfAP2-EXP AP2 domain (GST-tagged)"
  gcPBM binding intensity (ln): 10.2
- residue.string: "TTATATAAAACATTAACACACAAAGAAAAAAAATTA [CACACA_site1793]"
  system: "PfAP2-EXP AP2 domain (GST-tagged)"
  gcPBM binding intensity (ln): 8.57
- residue.string: "TTATATGGATATACAGTGCATATATACATATAAGTG"
  system: "PfAP2-EXP AP2 domain (GST-tagged)"
  gcPBM binding intensity (ln): 8.61
- residue.string: "AATCAAAACATTAAAAAGAAAAAATATATATATATA [CACACA_negctrl_site366]"
  system: "PfAP2-EXP AP2 domain (GST-tagged)"
  gcPBM binding intensity (ln): 10.2
- residue.string: "AATATTTAAGTACTGGTGCGTGTATATAATGATTAA [GTGCAC_site9633]"
  system: "PfAP2-EXP AP2 domain (GST-tagged)"
  gcPBM binding intensity (ln): 8.66
- residue.string: "TCAAAAATAAAGATCACACATATATATATATATATA [CACACA_site4381]"
  system: "PfAP2-EXP AP2 domain (GST-tagged)"
  gcPBM binding intensity (ln): 10.2
- residue.string: "AAAAAAAAAGATCACACACACATAAATATAAACAAA [CACACA_site5285]"
  system: "PfAP2-EXP AP2 domain (GST-tagged)"
  gcPBM binding intensity (ln): 8.48
